Test system: Huh-7
method: Selectivity index, ratio of CC50 for human PH5CH cells to CC50 for human HuH7 cells
Assay type: functional
Classification field: Condition met = Selectivity Index at or over 10; Condition not met = Selectivity Index under 10.

Example entries begin here.
{"compound_structure": "CCOC(=O)c1sc(NCc2ncccn2)nc1-c1ccccn1", "category_label": "Condition not met"}
{"compound_structure": "c1ccc(-c2csc(Nc3ncccn3)n2)nc1", "category_label": "Condition met"}
{"compound_structure": "CCOCc1sc(Nc2ncccn2)nc1-c1ccccn1", "category_label": "Condition met"}

Inquiry: Could you verify whether the entry CCOC(=O)c1sc(Nc2ncccn2)nc1-c1cc(C(F)(F)F)ccn1 shows Selectivity Index of no less than 10?
Reply text: Condition met

Inquiry: Subsequent entry: CC(C)OC(=O)c1sc(N(COP(=O)(OC(C)(C)C)OC(C)(C)C)c2ncccn2)nc1-c1ccccn1
Reply text: Condition met

Inquiry: Subsequent entry: O=C(O)CCc1sc(Nc2ncccn2)nc1-c1ccccn1
Reply text: Condition not met

====

method: Cytotoxicity against human THLE2 cells assessed as decrease in cell viability after 72 hrs by MTT assay
Assay type: toxicity, cell-based
protocol_conditions: thle-2, 72 h
measurement_type: CC50 (µM)
# unit: µM | format: bare number

Inquiry: Which value of CC50 has been reported for CCOC(=O)c1sc(Nc2ncccn2)nc1-c1cc(C(F)(F)F)ccn1 in the records?
Reply text: 15

Inquiry: Subsequent entry: CCOCc1sc(NCc2ncccn2)nc1-c1ccccn1
Reply text: 49.6

Inquiry: Subsequent entry: CCOC(=O)Cc1sc(NCc2ncccn2)nc1-c1ccccn1
Reply text: 50

Inquiry: Subsequent entry: CCOC(=O)CCc1sc(Nc2ncccn2)nc1-c1ccccn1
Reply text: 10.5

Inquiry: Subsequent entry: CCOC(=O)c1sc(Nc2ncccn2)nc1-c1ncccc1C
Reply text: 49.1

Inquiry: Subsequent entry: CC(C)OC(=O)c1sc(Nc2ncccn2)nc1-c1cnccn1
Reply text: 50

Inquiry: Subsequent entry: CCOCc1sc(Nc2ncccn2)nc1-c1ccccn1
Reply text: 41.8

Inquiry: Subsequent entry: CC(C)OC(=O)c1sc(N(COP(=O)(OC(C)(C)C)OC(C)(C)C)c2ncccn2)nc1-c1cnccn1
Reply text: 50

Inquiry: Subsequent entry: CC(C)OC(=O)c1sc(N(COP(=O)(OC(C)(C)C)OC(C)(C)C)c2ncccn2)nc1-c1ccccn1
Reply text: 42.2

Inquiry: Subsequent entry: COCCOCN(c1ncccn1)c1nc(-c2cnccn2)c(C(=O)OC(C)C)s1
Reply text: 50

Inquiry: Subsequent entry: CCOC(=O)c1sc(Nc2ncccn2)nc1-c1ccncn1
Reply text: 40.8

====

method: Half life in CD-1 mouse at 2 mg/kg, iv
Format: ADME, organism-based
protocol_conditions: in vivo
measurement_type: half-life (min)
# unit: min | format: bare number

Inquiry: Which value of half-life has been reported for CCOC(=O)c1sc(Nc2ncccn2)nc1-c1ccccn1 in the records?
Reply text: 14.4

====

method: Oral bioavailability in CD-1 mouse at 2.5 mg/kg
Format: ADME, organism-based
protocol_conditions: in vivo
measurement_type: bioavailability (%)
# unit: % | format: bare number

Inquiry: Which value of bioavailability has been reported for CC(C)OC(=O)c1sc(Nc2ncccn2)nc1-c1cnccn1 in the records?
Reply text: 15.2

====

method: Tmax in CD-1 mouse at 1 mg/kg, iv
Type: ADME, organism-based
protocol_conditions: in vivo
measurement_type: Tmax (h)
# unit: h | format: bare number

Inquiry: Which value of Tmax has been reported for CC(C)OC(=O)c1sc(Nc2ncccn2)nc1-c1cnccn1 in the records?
Reply text: 0

Entry source: ChEMBL document CHEMBL3867464
